All figures here come from the DeepSol protein solubility set.

test: soluble on expression in E. coli; label from the status in PepcDB or PDB records
attribute measured: soluble on expression in E. coli

seq: MSIATTPLHTALSLPQIQSFAASDMAAIDTLIHDRLTSDIVLINQIADHIICSGGKRLRPMLTMLAGHAIGPTGPHHHQLAAIIEFIHTATLLHDDVVDGSELRRSRSTANALWGNAPSVLVGDFLYSRSFQLMTELANLEVMQILAETTNRISEGEVLQLLHVHNPDTDETTYLSVIERKTAILFAAAAQLGALASHADTQTQTRMYEYGMQLGYAFQITDDVLDYTANNSQLGKNLGDDLAEGKATLPVIHAMTHSDAATCERLRMIISKGDSDAMPEVLNAIRTTGSLDYSRQRASAYAATAERALDGLPETEAVAALRGLARYAVQRTY
value observed: not soluble
--
seq: MGSDKIHHHHHHMQKESIYGLTREQLVDWFLAHGEKKFRATQVWEWLYTKRVASFSEMSNISKSLMTLLEENFSLNPLKQVIVQEAQDGTVKYLFELPDKNMIETVLMRQEYGLSVCVTTQVGCNIGCTFCASGLLKKQRDLTAGEIVAQIMWVQHYFDERGLDERVSHVVVMGIGEPFDNYANVMNFLRTINDDKGLAIGARHITVSTSGLVPKIREFADSGLQVNLAISLHAPNNEVRTSIMRINRSFPIEKLMAAIDEYIEKTNRRVTFEYIMLSQVNDRPEHAQQLADLLRNKKKLSYVNLIPYNPVSEHDQYSRSSKEAVLKFYDVLKKNGINCVIRKEHGTDIDAACGQLRSKQMKKEKVKNQ
value observed: not soluble

---

assay: soluble on expression in E. coli; label from the status in PepcDB or PDB records

seq: PSPQSLDGKNLNFDQQLVIFESENCEFCAQFDRDILAHWQADIPMVATKNTNPPADWTLDKPLFAAPTIVLFREGKEVVRYTGYTGEKENFWQWL
soluble on expression in E. coli: not soluble
//
seq: MGSDKIHHHHHHMNFTKIAVSAGCILALCAGCGANDTSSTKEKASSEKSGVTKEITASVNKMETIISKLNDSVEKGDQKEIEKKGKELNSYWLSFENDIRSDYPFEYTEIEKHLQPIYTEAQKDKPDAGKIKTESESLKASLEDLTEAKKSGKKASDQLAKAADEYKGYVKEQSDQLVKATEAFTGAVKSGDIEKSKTLYAKARVYYERIEPIAESLGDLDPKIDARENDVEEGDKWTGFHKLEKAIWKDQDISGEKATADQLLKDVKELDGSIQSLKLTPEQIVAGAMELLNEAGISKITGEEERYSRIDLVDLMANVEGSEAVYQTVKSALVKDHSDLTEKLDTEFSEFEVLMAKYKTNDQSYTSYDKLSEKQIRELSTKLTTLSETMSKIANVL
soluble on expression in E. coli: not soluble

---

experiment: soluble on expression in E. coli; label from the status in PepcDB or PDB records
attribute measured: soluble on expression in E. coli

seq: MGSDKIHHHHHHMIKILVDNTAYKKFFAQHGFSALIEINNKRILFDAGQNSITLRENLRLFNEKEGFDYIVLSHGHYDHCDGLKYVIENDLINGKVIAHKDAFLDKYAGNRYIGIDEEIKEYLLKKADLEIIEEPYKIDKDIIVSGYVPREYEYEMEEFQCIKDGKRVKDEVNDDMFLIAKGILITGCSHSGIINVVEYGKKLSEIKGVLGGFHLVGVSDNYLNRIVDYFKSQDFWIMPMHCTGFKALTKLSQLNNFVYGHVGKIIGI
value observed: not soluble
--
seq: MNSGRPETMENLPALYTIFQGEVAMVTDYGAFIKIPGCRKQGLVHRTHMSSCRVDKPSEIVDVGDKVWVKLIGREMKNDRIKVSLSMKVVNQGTGKDLDPNNVIIE
value observed: soluble
--
seq: MSIAVTTTDPTNTGVSTTSSSSLTGSNAADLQSSFLTLLVAQLKNQDPTNPMENNELTSQLAQISTVSGIEKLNTTLGSISGQIDNSQSLQASNLIGHGVMIPGTTVLAGTGSEEGAVTTTTPFGVELQQAADKVTATITDKNGAVVRTIDIGELTAGVHSFTWDGTLTDGSTATNGSYNVAISASNGGTQLVAQPLQFALVQGVIRGNNGNTLDLGTYGTTILDEVRQII
value observed: soluble
--
seq: MIFFSVALTTLLVGLSNGCFCPPVISPSCGCGGGGYSSYSGGGYGGGYGGGAINGYATFYRDLTPFRQPYYQTASYPQYQQGPAQSLQQMYQLPNPRYIQPQAPRPQYISRPAPRPAPAPYQPPRVQERPYVQPAAPVAELAETRKNTLHDNGYGEEIERTTYTPVVTAAPVYETDAPTIVTQAPAVEEVPDFDETPVKKGEKDEFYYAYYDDKGNKVGDSRSGTTFAPENVIVEEEATVAPAPASIHMDVTTERVEVANENYDDVVEETQVPVRTSLSPSYTPEVVTSSTVLFMEPRVEAKTVAPAAHENTEVVYEDETVEYEDDGHSETSELPSTKKPQSAEFKRTVQDNQILVDAAENTGEGYRRRNAVNGVRIVKRFRHDERKIHSN
value observed: not soluble
--
seq: MSLASEILPDEFLELFKDLKKPPKKLHYKGNLSLLKQDKIAIIGSRRMSVYTKNCVFSLASMLKNAHLCVVSGGALGVDITASMAAMPNTIGIFANGLDQIYPRTNEKIIKQIYENALALSEYEDDYLPKNYDFLLRNRLVIALSKAVVVAQADIKSGSMQSAKLALELNKPLYVLPQRLGESTATNLLLKENKAKLICDFKEFVSEFASIDMNQDEFLEFCKKGVSVDEALKIYGQKVYEYELEGKISIEGLFIRVLAEGHHHHHH
value observed: soluble
--
seq: SLEKRQGLEDIGRVRATIKNEFPSLTLLTQDWGDWDETYKFSQNHNQEYLEANVPSLTTLSKSTKIDFLALYDLNAIELFKGAYHPDMEREVNLHSTPSIRSLVASVLKTNREKKGLFKTDEGLLALVARPILTSEGRGPSHGVIIMGRFLSQLLLSSVGKKCPIPFELFIQDDKRLSAPEKALFAKLSATAPRFTPVFHQGFVYQTYPDIE
value observed: not soluble
--
seq: GHHHHHHAIAENLYFQSQQVKQKHKKSDEYRVFVGNLPFSWLEDAVRSVFHSYGTVVDVEVPRKREQPERNRGFAFVYFSSREEALAATTLSGSRLDGRIIKVEWADDGSEHRKVGHEELTQRPTHPLASSQVYEWGGQQVQKQNDSVVSKETPNFMPSGALYKEQRMTRYGKELKFVEPLDARKPEQPWRMYVFKNGKLLEGEEGVFYIHQKSNYLFGRDRDVVDIPIDHPSASKQHAVLQFRQVMPKNGNKLVIKPYIMDLESTNGTFLNNERIESLRYYELLEKDLLRFGHSSREFILLTGHK
value observed: soluble
--
seq: MGSDKIHHHHHHMSHITDIAYKNWIVELKSKIRSSQVKASLAINAALIEFYWDLGKMIAEKQTAWGTKFIEQVSHDLQVEFPEMKGLSTTNLKYCRSFYLFYQNAIGQQAVAQLPVTPNVQQGVGEISQQSVDQLQHIEKQVNVFGQQFVAQIPWGHNILIFTKSKSYTEAQFYLQQTISNAWGRETLALQIKSQLFERQGKAITNFKQTLPEPLSDLAQQTLKDPYNFDFVNMAGTMKEKDLEKQLITHISKFLLELGKGFAFVGQQYHLEIAENDYYLDLLFYHIKLKCYVVIELKNTKFVPEYTGKMNFYLSAVDTLLKQDDDKPTIGILLCRDKNNIEAEFALRDINKPIGISEFSFTEILPENLKSSLPTVEELENELQHLTNDTDEN
value observed: not soluble
--
seq: MSLSLNFLDFEKPIVELETKIQALRDVSRHSTSASVDLDKELEQLEKKSLELKKKIFSDLGAWQVAQLARHPQRPYTLDYLKHIFTEFDELAGDRAYADDKAIVGGIARLEGRSVMVIGHQKGRETREKVKRNFGMPKPEGYRKALRLMEMAERFNMPIITFIDTAGAYPGVGAEERGQSEAIAKNLKVMSGLKVPVICNVVGEGGSGGALAIGVGDYVNMLQYSTYSVISPEGCASILWRDSDKAPQAAEAMGLIAPRLKELELIDEIIEEPLGGAHRDHKQTAENVKATLLRQLADLDALDHENLLERRYQRLMNYGYCEGHHHHHH
value observed: soluble
--
seq: MAHHHHHHMRLTPLRCSAAAFHFTSLLLQGSGGGYRFFEDMYPKHDPAPRYRYYEDQMQSPTVRSLEPKKQMTETEKLHHLHDWKKDKEGLTPPPEFGWPEEWGPEPGEEGHSEWYRKNRMYMSYEEKSRYDLRVGVPVEKNSMRHQEMPYQKRMKAAYVNLEEKNPQYFDPRQRKYWAEYSYEDQRDTMAKARDDYIKEWLDEPGVTKENVAKKIGDYNGTAKNQNVKSVQRRPEWELAPRPEYDDD
value observed: not soluble

---

test: soluble on expression in E. coli; label from the status in PepcDB or PDB records

seq: MGHHHHHHSHAQHNYVISLTTEQKRRKHITEEFGKQNIPFEFFDAITPDIIEETAKKFNITLDRSPKAKLSDGEIGCALSHIVLWDLALENNLNYINIFEDDIHLGENAKELLEIDYISDDIHVLKLEANGKMFFKQPKSVKCDRNVYPMTVKQSGCAGYTVTAKGAKYLLELVKNKPLDVAVDSLV
soluble on expression in E. coli: soluble
//
seq: MRKEVEQLALMGAMPDEADERITAALVDEYADLLGKIVKPVTLDEAHILIKLFPPTALYGIEWTLLHLIESVYSEIKSLEYRELINECNSTEFKKMLVQRLNNSQQKKITNEAG
soluble on expression in E. coli: not soluble
//
seq: MSHVFQIHSSQYKSPSQIPQGKVLVVGGGNSGMQIAVEFAKTHEVTMSISHPLTFLPLHFFRKSIFNWLEKLGLLYAEVSTKRGKWFQKRKDPIFGFEGKELIRNGAIQLQEKVVSASENNIMFQNGETYSAESIIWSTGFIQNYNWIEIEKVVNENGLPNHIKGISPVRGLYYIGLEHHHHHH
soluble on expression in E. coli: soluble
//
seq: FCGRARVHTDFTPSPYDTDSLKLKKGDIIDIISKPPMGTWMGLLNNKVGTFKFIYVDVLS
soluble on expression in E. coli: soluble
//
seq: MGSDKIHHHHHHMTTKPERVVLIGVAGDSGCGKSTFLRRLIDLFGEEFMTVICLDDYHSLDRKQRKETGITALDPRANNFDLMYEQIKALKEGQTINKPIYNHETGLIDPPEIVKPNHIVVVEGLHPLYDERVRSLLDFSVYFDISDEVKIAWKIQRDMAERGHRYEDVLAAINSRKPDFQKYIEPQREFADVVLQVLPTNLIKDDTDRKVLRVRMLQREGKEGFEPAYLFDEGSTINWTPCGRKLTCSYPGMQLYYGSDVYYGRYVSVLEVDGQFDNLEEVIYIETHLSNTSTKYQGELTQLLLQHREYPGSNNGTGFFQVLTGLKMRAAYERLTAKEAKLAVQV
soluble on expression in E. coli: not soluble
//
seq: MPEDVKNFYLMTNGFHMTWSVKLDEHIIPLGSMAINSISKLTQLTQSSMYSLPNAPTLADLEDDTHEASDDQPEKPHFDSRSVIFELDSCNGSGKVCLVYKSGKPALAEDTEIWFLDRALYWHFLTDTFTAYYRLLITHLGLPQWQYAFTSYGISPQAKVREEHLPL
soluble on expression in E. coli: not soluble
//
seq: TTVNETTPIAPAKVLPDAQTVTSVRHWTDTLFSFRVTRPQTLRFRSGEFVMIGLLDDNGKPIMRAYSIASPAWDEELEFYSIKVPDGPLTSRLQHIKVGEQIILRPKPVGTLVIDALLPGKRLWFLATGTGIAPFASLMREPEAYEKFDEVIMMHACRTVAELEYGRQLVEALQEDPLIGELVEGKLKYYPTTTREEFHHMGRITDNLASGKVFEDLGIAPMNPETDRAMVCGSLAFNVDVMKVLESYGLREGANSEPREFVVEKAFVGEGI
soluble on expression in E. coli: soluble
//
seq: MSLTEEFVNKEDALKNYNAKEFRTPDGYTSDMILTTVKELNGKPTLHILLIKRSLTNAEGKPNMEGGKWAVPGGFVDENESAEQAAERELEEETSLTDIPLIPFGVFDKPGRDPRGWIISRAFYAIVPPEALEKRAAGDDAAEIGLFPMTEALELPLAFDHLDMLKKAFSAITEEFLLTTAIRDFLPETFSAELLYQTLEGCTKPGILPDEVEFMENIEYLPYLEKVGDLYRFNADAEAGSIYFEGHHHHHH
soluble on expression in E. coli: soluble
//
seq: ASWSHPQFEKGAMSNYSMSRGHSDKCVGAEDILSEIKEAEKVLNAASDELKREGHNVKTFIDRTSTTQSANLNKIVNWHNANPADVHISVHLNAGKGTGVEVWYYAGDEKGRKLAVEISAKMAKALGLPNRGAKATKDLRFLNSTKGTAVLLEVCFVDRKEDANAIHKSGMYDKLGIAIAEGLTGKTVAAKNPNRHSGAVVDSVPMLSKMDFKSSPIKMYKAGSSLLVYEHNKYWYKAYINDKLCYIYKSFCISNGKKDAKGRIKVRIKSAKDLRIPVWNNTKLNSGKIKWYSPGTKLSWYDNKKGYLELWYEKDGWYYTANYFLK
soluble on expression in E. coli: soluble
//
seq: MSQATARHSVTSSPVSTGQLEEPISRLRVPTEDELPQKLRDIHMRIRKKFGFVPNFLTALSANPGTALRIMAFYEHLFDQSNSHLSASERELIAVVTSVATGCSYCVFNHRPALAAALGDRVLADRIARNHNDVTLAPRERALADLAQKLAATPHSVGSDDFARLRAIGFSEPAILEVLEVSAFFSYGNRLTIALNVLPDPQFFVSAMAGDPLEHHHHHH
soluble on expression in E. coli: not soluble
//
seq: MIAITGASGQLGRLVIAQLLEKVPASDIVALVRDVNKVADLSAKGVQVKAADYNQPEALAFALQGVDKVLLISSSEVGQRAAQHRNVIEAAVKAGVKLVAYTSLLHADKSPLALAEEHRQTEALLKDSGLPHVLLRNGWYTENYAASIPAALEHGVFIGSAGEGKITSATREDFAAAAVAVLTQEGQAGKVYELAGDEPYTLVELAAEISKQSGKSIGYQNLSGAEFTAALVSAGLPDVFAQIIADSDVGASKGGLFDGGKHLSQLIGRPTTPLSAVVKATLKLEHHHHHH
soluble on expression in E. coli: not soluble
//
seq: MGSDKIHHHHHHMTTAADLSVFEQLDLPDTSLTRDTFAFAAQATPAFIHDHCVRSYVFARAHAQNQGLRAGTDYDDELLFVSCVLHDLGLSEEGSNGDQRFEVDGADIAAAFLRERGVEEERIAVAWDAIALHTSEGIASRKGTEVALAHLGIATDILGIQRESLPAGLADEVHALLPRQDLAHGFSDLIITQAVAKPHKASPTNFIGDLLRRHLPYGAYPNWYDLIDAAGWGDKPVGVTARRRAETPQQVGTLFMEYLEAGDVEGLVSLYEPNAHFVPTPGTHLVGTDAIREAMRQMVDSGARLKLEQREIRQVDDIALVSNNAILTGIGPEPVVSTTTEILRRQPDGGWVHAVDDPFFS
soluble on expression in E. coli: not soluble
